Data provenance is a melting point compilation (Tetko et al.; mined from patent text by program, amines drawn as free bases though some values may be those of a salt).

Recorded melting point by entry

Cc1c(-c2ccnc(C(F)(F)F)c2)sc2nc(N)[nH]c(=O)c12
335 to 355 °C
COc1ccc(-c2cn(-c3nc(C)c(C(=O)NCc4ccccc4)s3)nn2)cc1
168 to 171 °C
CCCCN1CCN(CCCC)C2SC(=C3C(=O)CC(c4ccccc4)CC3=O)SC21 (stereo not given)
130 to 132 °C
Nc1ccc(S(=O)(=O)c2cc(-c3cc(C(F)(F)F)cc(C(F)(F)F)c3)nc(N3CCCC3)c2)cc1
184 to 186 °C
CCC(C)N(C(=O)c1cc(-c2ccccc2Cl)nc2ccccc12)C(C)CC (stereo not given)
120 °C

So for `CCOC(OCC)c1cccc2c1Sc1c(C=O)cccc1N2C` , the logged melting point turned out to be 154 °C

The value of melting point measured for the compound COc1ccc(CCNCC(O)c2ccccc2)cc1OC (stereo not given) turned out to be 92 to 93 °C

The reported value for CC#CC(O)(C(=O)OC)c1ccccc1 (stereo not given) in terms of melting point is 64 to 65 °C

Lookup result for CCN1C(=O)C(C(=O)Nc2ccc(F)cc2)c2cc3c(cc21)CC(C)(C)O3 (stereo not given) ; measured melting point: 160 to 162 °C

Just so you know, measured melting point for CC1=CC(c2ccc(Cl)cc2)C2=C(CCCC2=O)N1 (stereo not given) came out at 184 to 187 °C

* * *

Parameter melting point: see the listing below.

CC1Cc2ccccc2C1=NO (stereo unspecified)
82 to 91 °C

Record `CSc1nc2nc(C)cc(-c3ccccc3)n2n1` . Reported melting point: 121 to 123 °C

Item: CN(C)C1CCCN(C(=O)c2ccc(NC(=O)Cc3ccccc3Cl)cc2)c2ccccc21 (stereo unspecified) | melting point: 187 to 189 °C

Item: `COc1cccc2cc(C(=O)N[C@@H](CC(N)=O)C(=O)N[C@@H](Cc3ccccc3)[C@H](O)C(=O)N3C[C@@H](Cl)C[C@H]3C(=O)NC(C)(C)C)oc12` | melting point: 125 to 136 °C

The reported melting point of the compound `CC(C)NC(=O)Nc1nc2nc(N)ncc2cc1-c1c(Cl)cccc1Cl` was 184 to 188 °C

The reported melting point of the compound Nc1ccc2nc3c(nc2c1)OCC1CCCCN31 (stereo unspecified) was 229 to 232 °C

GET /value?item= CCOCCOc1ccc2c(c1)C(N(CC)S(C)(=O)=O)CC(C)(C)O2 (stereo unspecified) &field=melting point returns 73 to 75 °C

So, CC(=O)SC(CC(=O)c1ccccc1Cl)C(=O)O (stereo unspecified) ? Its melting point was 115 to 116 °C

For `N#Cc1cnn2c(C(F)(F)F)cc(-c3ccccc3F)nc12` the compound record lists melting point as 165 °C

Reported melting point ( `CCOc1nc(CCO)nc(N2CCc3ccccc3CC2)c1C#N` ) = 108 to 111 °C

Short answer for `COc1cccc2c1nc(C(F)F)n2-c1nc(Nc2ccc(Cl)nc2)nc(N2CCOCC2)n1` : melting point was 260 to 262 °C

Form field melting point, entry `O=C1COc2ccc(Br)cc2N1O` : 201 to 204 °C

GET /value?item= `O=C(Oc1cc(O)ccn1)c1ccccc1` &field=melting point returns 124 to 127 °C

Consider `CC(C)OC(=O)c1ccccc1SN(C(=O)NC(=O)c1ccccc1Cl)c1ccc(OC(F)(F)F)cc1` . Its measured melting point is 143 to 144 °C

# melting point (compound: CN1C=C(C(=O)Nc2ccccc2)C(C(F)(F)F)N1CO (stereo unspecified) ) is 191 °C

// field: melting point; key: `CCc1ccc(SC(=NNc2ccc(OC)cc2)C(C)=O)cc1` ; value = 106 to 108 °C

Given item CCCCN1CCOC2c3cccc4[nH]cc(c34)CC21 (stereo unspecified) , the value recorded as its melting point is 134 to 140 °C

Form field melting point, entry `Clc1ccc(Cl)c(-c2nnnn2Cc2cccnc2)c1` : 166 to 168 °C

Record `N#Cc1c(N)oc2ccccc2c1=O` , field melting point: 315 to 320 °C

According to the records, this compound CC1(C)C2CC[C@@]1(C)C(=O)C(C(=O)Nc1ccc(Cl)cc1)C2=O (stereo partly specified) displays melting point of 88 to 90 °C

Lookup result for `Clc1ccc2c(c1)CNc1cc(Cl)ccc1O2` ; measured melting point: 103 to 105 °C
